Where do the numbers come from? From ChEMBL document CHEMBL1148072.

# Activity annotations
# Test system: Blood
# experiment: Astringency in human blood by heme-analysis relative to tannin
# Type: functional

| compound | target-system | Activity |
| --- | --- | --- |
| O=C1OC[C@H]2OC(=O)c3cc(O)c(O)c(O)c3-c3c(O)c(O)c(O)c4c3C(=O)O[C@H]([C@@H]3OC(=O)c5c-4c(O)c(O)c(O)c5[C@@H]3c3c(O)cc(O)c4c3O[C@H](c3cc(O)c(O)c(O)c3)[C@@H](O)C4)[C@H]2OC(=O)c2cc(O)c(O)c(O)c2-c2c1cc(O)c(O)c2O [EUGENIGRANDIN A] | Blood | 0.46 |
| O=C1OCC2OC(=O)c3cc(O)c(O)c(O)c3-c3c(O)c(O)c(O)c4c3C(=O)OC(C2OC(=O)c2cc(O)c(O)c(O)c2-c2c1cc(O)c(O)c2O)C1OC(=O)c2c-4c(O)c(O)c(O)c2C1O (stereo not drawn) [VESCALAGIN] | Blood | 0.24 |
| O=C1OC[C@H]2OC(=O)c3cc(O)c(O)c(O)c3-c3c(O)c(O)c(O)c4c3C(=O)O[C@H]([C@@H]3OC(=O)c5c-4c(O)c(O)c(O)c5[C@@H]3c3c(O)cc4c(c3O)C[C@H](O)[C@@H](c3cc(O)c(O)c(O)c3)O4)[C@H]2OC(=O)c2cc(O)c(O)c(O)c2-c2c1cc(O)c(O)c2O [GUAJAVIN B] | Blood | 0.44 |

###

# System: Blood
# experiment: Astringency in human blood by heme-analysis relative to tannin
# Type: functional

| molecule | Activity |
| --- | --- |
| O=C1OC[C@H]2OC(O)[C@@H]3OC(=O)c4cc(O)c(O)c(O)c4-c4c(cc(O)c(O)c4O)C(=O)O[C@H]3[C@@H]2OC(=O)c2cc(O)c(O)c(O)c2-c2c1cc(O)c(O)c2O (some centres not stated) | 0.2 |
| O=C1OC[C@H]2OC(=O)c3cc(O)c(O)c(O)c3-c3c(O)c(O)c(O)c4c3C(=O)O[C@H]([C@@H]3OC(=O)c5c-4c(O)c(O)c(O)c5[C@@H]3c3c(O)cc(O)c4c3O[C@H](c3ccc(O)c(O)c3)[C@@H](O)C4)[C@H]2OC(=O)c2cc(O)c(O)c(O)c2-c2c1cc(O)c(O)c2O | 0.28 |
